Overview of reported pKi across a group of compounds:
target: human α5β3γ2 receptors (α5-GABAA receptor) (Homo sapiens (Human), UniProt P18507+P31644); assay: 3H-flunitrazepam competition binding, human α5β3γ2 GABAA receptor; details: HEK293 cell membranes, 1 nM 3H-flunitrazepam; read-out: α5-GABAAR Ki
On this scale, pKi is minus log10 of a concentration expressed in M (mol/L).

stdin: I am curious: what pKi value has been reported for Cc1nnn(-c2ccc(C(F)F)cc2)c1COc1ccc(N2CC3(CNC(=O)C3)C2)nn1 [Example 87] ?
stdout: 8.46

stdin: Similarly, Cc1nnn(-c2ccc(C(F)F)cc2)c1COc1ccc(N2CCN3CC(C(C)C)NC(=O)[C@@H]3C2)nn1 (stereo partly shown) [Example 200] ?
stdout: 8.72

stdin: Similarly, O=C1CN(c2ccc(OCc3c(CC4CC4)nnn3-c3ccc(C(F)F)cc3)nn2)CCN1 [Example 186] ?
stdout: 8.34

Kindly consider the entry below.
stdin: Find the recorded pKi belonging to COCCCN1CCN(c2ccc(OCc3c(C)nnn3-c3ccc(C(F)F)cc3)nn2)CC1=O [Example 140] and report it.
stdout: 8.85
